All figures here come from patent US8198307B2.

target: MCH R1 (melanine-concentrating hormone receptor-1) (Homo sapiens); construct: purchased Euroscreen, Gosselies, Belgium; test: Inhibitory effects on MCH R1 binding (Eu-MCH time-resolved fluorescence binding assay); conditions: concentration inhibiting the binding of MCH (Eu-MCH, 2 nM) to MCH R1 by 50% in vitro; TRF readout; test range 1 nM to 10 μM; read-out: IC50
pIC50: −log10 of the molar value.
The label depends only on pIC50: Criterion met if it is at least 8, Criterion not met if it is smaller.

Some entries whose results are on file:
CC(=O)Nc1cccc(C2CCN(CCCn3c(-c4ccccc4F)nc4ccc(Cl)cc43)CC2)c1    Criterion not met
CC(=O)Nc1cccc(C2CCN(CCCn3c(-c4ccc(Cl)nc4)nc4ccccc43)CC2)c1    Criterion met
CCCCc1nc2c(C)cc(C)nc2n1CCCN1CCC(c2cccc(NC(=O)C(C)C)c2)CC1    Criterion not met
O=C(Nc1cccc(C2CCN(CCCn3c(-c4ccc(Cl)cc4)nc4ccccc43)CC2)c1)c1ccccc1    Criterion not met
CC(=O)Nc1cccc(C2CCN(CCCn3c(-c4ccc(Cl)cc4)nc4cc(C#N)ccc43)CC2)c1    Criterion not met
CC(=O)Nc1cccc(C2CCN(CCCn3c(-c4ccc(Br)o4)nc4cc(Cl)ccc43)CC2)c1    Criterion not met
O=C(Nc1cccc(C2CCN(CCCn3c(-c4ccc(Cl)cc4)nc4ccccc43)CC2)c1)c1cccc(Cl)c1    Criterion not met
COc1ccc2nc(-c3ccc(Cl)cc3)n(CCCN3CCC(c4cccc(NC(C)=O)c4)CC3)c2c1    Criterion not met
CC(=O)Nc1cccc(C2CCN(CCCn3c(-c4ccc(Cl)cc4F)nc4ccccc43)CC2)c1    Criterion met
CC(=O)Nc1cccc(C2CCN(CCCn3c(-c4ccc(Cl)cc4)nc4cc(C)c(C)cc43)CC2)c1    Criterion not met

Exam item: Could you please find out whether COc1ncccc1-c1nc2ccccc2n1CCCN1CCC(c2cccc(NC(C)=O)c2)CC1 has pIC50 that meets 8 or exceeds it?
Marked response: Criterion not met

Exam item: Answer whether pIC50 of COc1ccc(Cl)cc1-c1nc2cc(C)c(C)cc2n1CCCN1CCC(c2cccc(NC(C)=O)c2)CC1 is greater than or equal to 8.
Marked response: Criterion not met

Exam item: Hi, just wondering whether CC(=O)Nc1cccc(C2CCN(CCCn3c(-c4ccsc4)nc4cc(C)ccc43)CC2)c1 shows pIC50 of 8 or higher.
Marked response: Criterion met

---

molecular target: MCH R1 (melanine-concentrating hormone receptor-1) (Homo sapiens, UniProt Q99705); construct: purchased Euroscreen, Gosselies, Belgium; experiment: Inhibitory effects on MCH R1 binding (Eu-MCH time-resolved fluorescence binding assay); settings: concentration inhibiting the binding of MCH (Eu-MCH, 2 nM) to MCH R1 by 50% in vitro; TRF readout; test range 1 nM to 10 μM; read-out: IC50
Sequence (Q99705 whole entry, species assumed): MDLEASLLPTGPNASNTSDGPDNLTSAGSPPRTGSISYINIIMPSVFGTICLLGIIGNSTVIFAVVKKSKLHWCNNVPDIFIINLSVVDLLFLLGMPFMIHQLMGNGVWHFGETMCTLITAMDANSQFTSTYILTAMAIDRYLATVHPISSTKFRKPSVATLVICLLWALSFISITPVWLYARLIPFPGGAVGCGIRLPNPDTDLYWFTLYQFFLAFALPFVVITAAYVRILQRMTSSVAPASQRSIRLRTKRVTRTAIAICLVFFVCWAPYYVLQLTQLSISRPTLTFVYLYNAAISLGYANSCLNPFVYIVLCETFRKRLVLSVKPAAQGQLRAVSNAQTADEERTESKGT
readout.type: pIC50
Answers are plain numbers, as −log10 of the molar value.

Previously resolved entries follow.
CC(=O)Nc1cccc(C2CCN(CCCn3c(-c4ccc(F)cc4Cl)nc4cc(C)c(C)cc43)CC2)c1 [Example 80]    7.10
CC(=O)Nc1cccc(C2CCN(CCCn3c(-c4ccc(Cl)cc4Cl)nc4ccccc43)CC2)c1 [Example 16]    8.52
CCCCc1nc2c(C)c(-c3ccccc3)c(C)nc2n1CCCN1CCC(c2cccc(NC(=O)C(C)C)c2)CC1 [Example 100]    6.49
CCCCc1nc2cc(Br)c(C)nc2n1CCCN1CCC(c2cccc(NC(C)=O)c2)CC1 [Example 94]    8.52

Below is a list of molecules. For each, state its recorded pIC50.
1. CC(=O)Nc1cccc(C2CCN(CCCn3c(-c4ccc(Cl)cc4)nc4ccc(Br)cc43)CC2)c1 [Example 36]
2. CC(=O)Nc1cccc(C2CCN(CCCn3c(-c4ccc(Cl)c(Cl)c4)nc4ccccc43)CC2)c1 [Example 12]
3. CC(=O)Nc1cccc(C2CCN(CCCn3c(-c4ccc([N+](=O)[O-])cc4Cl)nc4ccccc43)CC2)c1 [Example 57]

Marked response:
7.77
7.62
7.43
